Catalogue of pEC50 readings, one per entry.
# System: Vero host cells
# procedure.details: Cytotoxicity against Vero host cells in the T. cruzi intracellular assay
# Type: cell-based
# experimental.parameters: Chlorocebus sabaeus; Vero host cells, 96h incubation, concentrations up to 50 µM; read-out: Vero cells EC50
pEC50: −log10 of the molar value.
measured.property: pEC50

smiles_data=O=C(Cn1cccc1[N+](=O)[O-])Nc1ccccc1 measured_property=pEC50 operator== test_value=4.85
smiles_data=COc1cccc(NC(=O)Cn2cccc2[N+](=O)[O-])c1 measured_property=pEC50 operator=< test_value=4.30
smiles_data=O=C(Cn1cccc1[N+](=O)[O-])NCc1cccc(C(F)(F)F)c1 measured_property=pEC50 operator== test_value=4.37
smiles_data=O=C(Cn1cccc1[N+](=O)[O-])Nc1cccc(C(F)(F)F)c1 measured_property=pEC50 operator=< test_value=4.30
smiles_data=O=C(Cn1cccc1[N+](=O)[O-])Nc1ccccc1Cl measured_property=pEC50 operator=< test_value=4.30
smiles_data=O=C(Cn1cccc1[N+](=O)[O-])NCc1ccccc1 measured_property=pEC50 operator== test_value=4.38

Cited source for all entries: paper PMC9000427
